Sourced from patent US20240018252A1

Consider the following binders and their measured koff readings.
Molecular target: T1, human CD3 (huCD3ed) (human, UniProt P07766 23-126; P04234 22-105)
T1 construct: Soluble analyte in SPR; The delta chain is inferred from the label 'ed'; also called hCD3ed; hCD3
T1 sequence (P07766 23-126, chain 1 of 2): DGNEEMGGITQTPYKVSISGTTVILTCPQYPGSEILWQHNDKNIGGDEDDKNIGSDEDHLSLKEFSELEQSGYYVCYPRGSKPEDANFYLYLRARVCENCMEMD
T1 sequence (P04234 22-105, chain 2 of 2): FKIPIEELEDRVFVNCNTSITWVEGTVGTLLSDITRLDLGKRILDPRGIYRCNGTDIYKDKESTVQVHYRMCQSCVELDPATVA
Assay: SPR (ProteOn XPR36), IgG amine-coupled on chip, huCD3ed as analyte, 37 C
Protocol: All experiments were performed on a Bio-Rad Proteon XPR36 surface Plasmon resonance biosensor (Bio-Rad, Hercules, CA). […] The analysis temperature for the immobilization was 25° C. and the running buffer was HBS-T+(10 mM HEPES, 150 mM NaCl, 0.05% Tween-20, pH 7.4). […] The analysis temperature for the hCD3 binding analysis was 37° C. or 25° C. in a running buffer of HBS-T+, supplemented with 1 mg/mL BSA. […] Immediately after the 50 nM hCD3 injection, dissociation was monitored for 2 hours. […]

Binder | Display unit | koff
h2B4-VH-yaes VL_TK (antibody, V domains shown, Anti-CD3; also called h2B4-yaesTK) VH: EVQLVESGGGLVQPGGSLRLSCAASGFTFSDYYMTWVRQAPGKGLEWVAFIRNRARGYTSDYAESVKGRFTISRDNAKNSLYLQMNSLRAEDTAVYYCARDRPSYYVLDYWGQGTTVTVSS VL: DIVMTQSPDSLAVSLGERATINCKSSQSLFNVRSRKNYLAWYQQKPGQPPKLLISWASTRESGVPDRFSGSGSGTDFTLTISSLQAEDVAVYYCKQSYDLFTFGSGTKLEIK | s⁻¹ | 0.023
h2B4-VH-yads VL_TK (antibody, V domains shown, Anti-CD3) VH: EVQLVESGGGLVQPGGSLRLSCAASGFTFSDYYMTWVRQAPGKGLEWVAFIRNRARGYTSDYADSVKGRFTISRDNAKNSLYLQMNSLRAEDTAVYYCARDRPSYYVLDYWGQGTTVTVSS VL: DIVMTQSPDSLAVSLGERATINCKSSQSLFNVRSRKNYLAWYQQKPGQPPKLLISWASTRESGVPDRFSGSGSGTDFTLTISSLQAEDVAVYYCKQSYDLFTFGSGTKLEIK | s⁻¹ | 0.021
h2B4-VH-yaps VL_TK (antibody, V domains shown, Anti-CD3) VH: EVQLVESGGGLVQPGGSLRLSCAASGFTFSDYYMTWVRQAPGKGLEWVAFIRNRARGYTSDYAPSVKGRFTISRDNAKNSLYLQMNSLRAEDTAVYYCARDRPSYYVLDYWGQGTTVTVSS VL: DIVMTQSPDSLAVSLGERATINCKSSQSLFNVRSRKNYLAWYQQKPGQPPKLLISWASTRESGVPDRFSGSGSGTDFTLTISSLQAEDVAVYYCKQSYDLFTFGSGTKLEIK | s⁻¹ | 0.023
